- system name: 5-hydroxytryptamine receptor 1D (Homo sapiens)
- protocol text: Binding affinity by displacement to human cloned 5-hydroxytryptamine 1D receptor in CHO cells by [3H]5-HT displacement.

| compound structure string | measurement unit | IC50 |
| --- | --- | --- |
| C[C@@H](NC1CCN(CCCc2c[nH]c3ccc(-n4cnnc4)cc23)CC1)c1ccccc1 | nM | 0.35 |
| c1ccc(CNC2CCN(CCCc3c[nH]c4ccc(-n5cnnc5)cc34)CC2)cc1 | nM | 4.8 |
| CN(C)CCc1c[nH]c2ccc(-n3cnnc3)cc12 | nM | 0.3 |
| c1ccc(COC[C@@H]2CCN(CCc3c[nH]c4ccc(-n5cnnc5)cc34)C2)cc1 | nM | 2.3 |

---

- system name: 5-hydroxytryptamine receptor 1D (Homo sapiens, UniProt P28221)
- Sequence (P28221 whole entry): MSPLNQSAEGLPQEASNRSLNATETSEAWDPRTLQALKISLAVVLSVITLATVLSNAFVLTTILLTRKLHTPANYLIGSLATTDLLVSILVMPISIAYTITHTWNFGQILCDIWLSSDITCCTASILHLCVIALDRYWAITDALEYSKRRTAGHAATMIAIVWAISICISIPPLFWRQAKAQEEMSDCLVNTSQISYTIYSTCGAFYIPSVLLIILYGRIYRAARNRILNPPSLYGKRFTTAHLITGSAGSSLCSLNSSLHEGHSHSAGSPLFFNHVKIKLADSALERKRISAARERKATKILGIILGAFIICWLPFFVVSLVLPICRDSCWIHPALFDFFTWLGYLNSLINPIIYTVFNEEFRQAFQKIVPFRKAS
- protocol text: Measurement of agonist induced [35S]GTP-gamma-S, binding in CHO cells stably transfected with 5-hydroxytryptamine 1D receptor.
readout name: log10 of EC50 (log10 of the value in nM)

| molecule | system name | assay result |
| --- | --- | --- |
| c1ccc(CNC[C@@H]2CCN(CCc3c[nH]c4ccc(-n5cnnc5)cc34)C2)cc1 | 5-hydroxytryptamine receptor 1D (Homo sapiens, UniProt P28221) | -0.03 |
| CN(C)CCc1c[nH]c2ccc(-n3cnnc3)cc12 | 5-hydroxytryptamine receptor 1D (Homo sapiens, UniProt P28221) | -0.35 |
| c1ccc(CO[C@@H]2CCN(CCc3c[nH]c4ccc(-n5cnnc5)cc34)C2)cc1 (stereo in doubt; 4b) | 5-hydroxytryptamine receptor 1D (Homo sapiens, UniProt P28221) | 1.18 |
| OC[C@H](NC1CCN(CCCc2c[nH]c3ccc(-n4cnnc4)cc23)CC1)c1ccccc1 | 5-hydroxytryptamine receptor 1D (Homo sapiens, UniProt P28221) | 0.26 |
| CN(Cc1ccccc1)C[C@@H]1CCN(CCc2c[nH]c3ccc(-n4cnnc4)cc23)C1 | 5-hydroxytryptamine receptor 1D (Homo sapiens, UniProt P28221) | 0.20 |
| c1cc2[nH]cc(CCN3CCCC3)c2cc1-n1cnnc1 | 5-hydroxytryptamine receptor 1D (Homo sapiens, UniProt P28221) | 0.41 |
| c1ccc(CNC2CCN(CCCc3c[nH]c4ccc(-n5cnnc5)cc34)CC2)cc1 | 5-hydroxytryptamine receptor 1D (Homo sapiens, UniProt P28221) | 0.90 |
| CN(Cc1ccccc1)CC1CCN(CCCc2c[nH]c3ccc(-n4cnnc4)cc23)CC1 | 5-hydroxytryptamine receptor 1D (Homo sapiens, UniProt P28221) | -0.05 |
| c1ccc(COC[C@@H]2CCN(CCc3c[nH]c4ccc(-n5cnnc5)cc34)C2)cc1 | 5-hydroxytryptamine receptor 1D (Homo sapiens, UniProt P28221) | 0.32 |
| OC[C@H](NC1CCN(CCCc2c[nH]c3ccc(-n4cnnc4)cc23)CC1)c1ccc(F)cc1 | 5-hydroxytryptamine receptor 1D (Homo sapiens, UniProt P28221) | 0.04 |
| C[C@@H](NC1CCN(CCCc2c[nH]c3ccc(-n4cnnc4)cc23)CC1)c1ccccc1 | 5-hydroxytryptamine receptor 1D (Homo sapiens, UniProt P28221) | 0.18 |
| c1ccc(CO[C@@H]2CCN(CCc3c[nH]c4ccc(-n5cnnc5)cc34)C2)cc1 (stereo in doubt; 4c) | 5-hydroxytryptamine receptor 1D (Homo sapiens, UniProt P28221) | 1.52 |
| c1ccc(CNCC2CCN(CCc3c[nH]c4ccc(-n5cnnc5)cc34)C2)cc1 (single isomer, unassigned) | 5-hydroxytryptamine receptor 1D (Homo sapiens, UniProt P28221) | 0.61 |
| CN(Cc1ccccc1)C1CCN(CCCc2c[nH]c3ccc(-n4cnnc4)cc23)CC1 | 5-hydroxytryptamine receptor 1D (Homo sapiens, UniProt P28221) | 0.20 |
